Tested on: rat testis tubules
protocol notes: glucose oxidation (glucose-U-14C) by rat testis tubules in vitro
Assay type: cell-based
experimental conditions: average of flasks
Experimental: For these investigations the compounds were diluted in a minimal amount of ethanol and further diluted in saline (0.85%) so that the final concentration was 1 mg/ml. The compounds were placed in solution and gassed under N2 and stored at 5° C until used 2 days later for the in vitro incubation studies. Details of the in vitro incubation procedures may be found in Endocrinology 89:791-800 (1971). […]
property measured: AVERAGE glucose oxidation

Observe how each entry below is paired with its result.
# molecule, AVERAGE glucose oxidation
measured = [
    ("CC12CCc3cc(O)ccc3C1=NNC2=O (racemic)", "8,705 CPM/100 mg TISSUE"),
    ("Oc1ccc2c(c1)CCc1cn[nH]c1-2 [Compound 2, 4,5-Dihydro-1H-benz[g]indazol-7-ol]", "3,756 CPM/100 mg TISSUE"),
    ("COc1ccc2c3c(ccc2c1)-c1[nH]ncc1CC3 [Compound 11b]", "9,550 CPM/100 mg TISSUE"),
]

For each listed entry, give its AVERAGE glucose oxidation.
1. CC12CCN=C1c1ccc3cc(O)ccc3c1CC2 (centres unmarked)
2. COc1ccc2c3c(ccc2c1)C1=NCCC1(C)CC3 (centres unmarked)

Response line:
1: 8,181 CPM/100 mg TISSUE; 2: 12,140 CPM/100 mg TISSUE

Recorded values, source patent US3987055A.
